Property: growth; scope: individual molecules
test system: E. coli TESEC Mtb Alr; assay: growth (OD600 after 10 h); higher = more growth (less inhibition); settings: arabinose 10000000 nM; compound 0.1 mM; raw OD600 reference: median of DMSO wells […], cell-free background 0.052
Where a name gives a salt, the structure may show the parent alone.

molecule	target_of_assay	growth
CN(c1nccc(=O)[nH]1)C1CCN(c2nc3ccccc3n2Cc2ccc(F)cc2)CC1 [Mizolastine]	E. coli TESEC Mtb Alr	0.162
CCCNC(=O)NS(=O)(=O)c1ccc(Cl)cc1 [Chlorpropamide]	E. coli TESEC Mtb Alr	0.352
CCCCC(C)(O)C/C=C/[C@H]1[C@H](O)CC(=O)[C@@H]1CCCCCCC(=O)OC (mixture of isomers) [Misoprostol]	E. coli TESEC Mtb Alr	0.378
Nc1ncnc2c1ncn2[C@@H]1O[C@H](CO)[C@@H](O)[C@@H]1O [Vidarabine]	E. coli TESEC Mtb Alr	0.306
C=CC1=C(C(=O)O)N2C(=O)[C@@H](NC(=O)/C(=N\O)c3csc(N)n3)[C@H]2SC1 [Cefdinir]	E. coli TESEC Mtb Alr	0.0569
CC(=C(CCO)SSCC1CCCO1)N(C=O)Cc1cnc(C)nc1N (stereo in doubt) [Fursultiamine Hydrochloride]	E. coli TESEC Mtb Alr	0.323
CN(N=O)C(=O)N[C@H]1C(O)O[C@H](CO)[C@@H](O)[C@@H]1O (mixture of isomers) [Streptozotocin]	E. coli TESEC Mtb Alr	0.0602
CNCCC(Oc1ccc(C(F)(F)F)cc1)c1ccccc1 (stereo unspecified) [Fluoxetine hydrochloride]	E. coli TESEC Mtb Alr	0.0614
C=C1C(=O)O[C@H]2[C@H]1CC/C(C)=C/CC[C@@]1(C)O[C@@H]21 [Parthenolide]	E. coli TESEC Mtb Alr	0.316
CS(=O)(=O)c1ccc(C2=C(c3ccccc3)C(=O)OC2)cc1 [Rofecoxib]	E. coli TESEC Mtb Alr	0.302
CN(C)CCC=C1c2ccccc2COc2ccccc21 [Doxepin hydrochloride]	E. coli TESEC Mtb Alr	0.342
O=C(O)c1cccnc1 [Niacin]	E. coli TESEC Mtb Alr	0.431
C[C@H]1O[C@@H](O[C@H]2[C@@H](O)C[C@H](O[C@H]3[C@@H](O)C[C@H](O[C@H]4CC[C@@]5(C)[C@H](CC[C@@H]6[C@@H]5C[C@@H](O)[C@]5(C)[C@@H](C7=CC(=O)OC7)CC[C@]65O)C4)O[C@@H]3C)O[C@@H]2C)C[C@H](O)[C@@H]1O [Digoxin]	E. coli TESEC Mtb Alr	0.329
c1ccc(CNc2ncnc3nc[nH]c23)cc1 [Aminopurine, 6-benzyl]	E. coli TESEC Mtb Alr	0.361
CN(C)CCOC(=O)COc1ccc(Cl)cc1 [Meclofenoxate hydrochloride]	E. coli TESEC Mtb Alr	0.313
CSc1nc2cc(Cl)c(Oc3cccc(Cl)c3Cl)cc2[nH]1 [Triclabendazole]	E. coli TESEC Mtb Alr	0.137

---

Property: growth; scope: individual molecules
tested on: E. coli TESEC Mtb Asd; test: growth (OD600 after 10 h); higher = more growth (less inhibition); conditions: arabinose induction (level): High; compound 0.1 mM; raw OD600 reference: median of DMSO wells 0.331, cell-free background 0.041
Counter-ions that a name gives are not always drawn.

molecule	growth
CCN(CC)CCOC(=O)C(Cc1cccc2ccccc12)CC1CCCO1 (configuration not stated) [Nafronyl oxalate]	0.127
S=c1[nH]cnc2nc[nH]c12	0.176
CC1CC(OC(=O)C(O)c2ccccc2)CC(C)(C)N1C (configuration not stated) [Eucatropine hydrochloride]	0.479
CCCCC(CC)CN1CN(CC(CC)CCCC)CC(C)(N)C1 (configuration not stated)	0.309
Cn1c(=O)c2c(ncn2CC(O)CO)n(C)c1=O (configuration not stated)	0.367
CC(C)(C(=O)c1cccnc1)c1cccnc1	0.317
O=C(O)CCCC[C@@H]1SC[C@@H]2NC(=O)N[C@@H]21	0.347
CC(CNC1CCCCC1)OC(=O)c1ccccc1 (configuration not stated) [Hexylcaine hydrochloride]	0.452
CN[C@@H]1[C@H](O)[C@H](NC)[C@H]2O[C@@]3(O)C(=O)C[C@@H](C)O[C@H]3O[C@@H]2[C@H]1O [Spectinomycin dihydrochloride]	0.0788
CCCNC(C)C(=O)Nc1ccccc1C (configuration not stated) [Prilocaine hydrochloride]	0.322
CC(=O)OCC(=O)[C@@]1(O)CC[C@H]2[C@@H]3CCC4=CC(=O)CC[C@]4(C)[C@@]3(F)[C@@H](O)C[C@@]21C [Fludrocortisone acetate]	0.249
CC(C)OC(=O)CCC/C=C\C[C@@H]1[C@@H](CC[C@@H](O)CCc2ccccc2)[C@H](O)C[C@@H]1O	0.0525
Cn1c(NCCN(CCO)CCCc2ccc([N+](=O)[O-])cc2)cc(=O)n(C)c1=O	0.179
COc1cccc2c1C(=O)c1c(O)c3c(c(O)c1C2=O)C[C@@](O)(C(=O)CO)C[C@@H]3O[C@H]1C[C@H](N)[C@@H](O)[C@H](C)O1 [Epirubicin hydrochloride]	0.068
COc1cc(C(=O)NS(=O)(=O)c2ccccc2C)ccc1Cc1cn(C)c2ccc(NC(=O)OC3CCCC3)cc12	0.193
Cc1cc(NS(=O)(=O)c2ccc(N)cc2)no1	0.404
CCCCCCC[N+](CC)(CC)CCCCc1ccc(Cl)cc1 [Clofilium tosylate]	0.0468

---

tested on: E. coli TESEC Mtb Alr; assay: growth (OD600 after 10 h); higher = more growth (less inhibition); conditions: arabinose 100000 nM; compound 0.1 mM; raw OD600 reference: median of DMSO wells 0.201, cell-free background 0.041
Where a name gives a salt, the structure may show the parent alone.
Property: growth; scope: individual compounds
quantity_measured: growth

> print(dat)
                                   compound  reported.result
1  O=C(OCC(O)CO)c1ccccc1Nc1ccnc2cc(Cl)ccc12 (configuration not stated) [Glafenine hydrochloride]            0.187
2  CC1=C(C(=O)O)N2C(=O)[C@@H](NC(=O)[C@H](N)c3ccc(O)cc3)[C@H]2SC1            0.217
3  CN(Cc1cnc2nc(N)nc(N)c2n1)c1ccc(C(=O)N[C@@H](CCC(=O)O)C(=O)O)cc1 (racemic) [Amethopterin (R,S)]            0.206
4  CCN(CC)C(=O)Nc1ccc(OCC(O)CNC(C)(C)C)c(C(C)=O)c1 (configuration not stated) [Celiprolol HCl]            0.221
5  CN1CC2c3ccccc3Oc3ccc(Cl)cc3C2C1 (configuration not stated) [Asenapine maleate]             0.18
6  Cc1onc(-c2c(Cl)cccc2Cl)c1C(=O)N[C@@H]1C(=O)N2[C@@H]1SC(C)(C)[C@@H]2C(=O)O [Dicloxacillin sodium salt hydrate]            0.196
7  CC(=O)OCC(=O)[C@@]1(O)CC[C@H]2[C@@H]3CCC4=CC(=O)C=C[C@]4(C)[C@@]3(F)[C@@H](O)C[C@@]21C [Isoflupredone acetate]            0.213

---

test system: E. coli TESEC Mtb Alr; assay: growth (OD600 after 10 h); higher = more growth (less inhibition); conditions: arabinose 10000000 nM; compound 0.1 mM; raw OD600 reference: median of DMSO wells […], cell-free background 0.052
Structures can show the parent of a compound that is named as a salt.
Property: growth; scope: individual compounds
quantity_measured: growth

> print(dat)
                                   compound        target.of.assay  reported.result
1  Nc1nc(=O)n([C@@H]2CS[C@H](CO)O2)cc1F [(-)-Emtricitabine]  E. coli TESEC Mtb Alr            0.337
2                Cn1cnc2c1c(=O)[nH]c(=O)n2C  E. coli TESEC Mtb Alr            0.365
3  Cc1cccc(N(C)C(=S)Oc2ccc3ccccc3c2)c1 [Tolnaftate]  E. coli TESEC Mtb Alr            0.264
4  CN(C)CCCN1c2ccccc2Sc2ccc(Cl)cc21 [Chlorpromazine hydrochloride]  E. coli TESEC Mtb Alr           0.0848
5     C/C=C(/C(=C/C)c1ccc(O)cc1)c1ccc(O)cc1  E. coli TESEC Mtb Alr           0.0514

---

tested on: E. coli TESEC Mtb DapB; assay: growth (OD600 after 10 h); higher = more growth (less inhibition); conditions: arabinose induction (level): High; compound 0.1 mM; raw OD600 reference: median of DMSO wells […], cell-free background 0.041
Counter-ions that a name gives are not always drawn.
Property: growth; scope: individual compounds

compound	target_of_assay	growth
C[C@]12CC[C@@H]3c4ccc(OS(=O)(=O)O)cc4CC[C@H]3[C@@H]1CCC2=O [Estropipate]	E. coli TESEC Mtb DapB	0.194
CCOc1ccc2ccccc2c1C(=O)N[C@@H]1C(=O)N2[C@@H]1SC(C)(C)[C@@H]2C(=O)O [Nafcillin sodium salt monohydrate]	E. coli TESEC Mtb DapB	0.183
CN1CCN2c3ncccc3Cc3ccccc3C2C1 (stereo unspecified) [Mirtazapine]	E. coli TESEC Mtb DapB	0.212
CCOC(=O)[C@@](C)(N)Cc1ccc(O)c(O)c1 [Methyldopate hydrochloride]	E. coli TESEC Mtb DapB	0.155
CC(C)(S)C(N)C(=O)O (racemic) [D,L-Penicillamine]	E. coli TESEC Mtb DapB	0.18
O=C1CCc2cc(OCCCCc3nnnn3C3CCCCC3)ccc2N1 [Cilostazol]	E. coli TESEC Mtb DapB	0.16
Clc1cnccn1 [2-Chloropyrazine]	E. coli TESEC Mtb DapB	0.231
CCCC(CCC)C(=O)O [Valproic acid]	E. coli TESEC Mtb DapB	0.202
Clc1ccc(C(Cn2ccnc2)OCc2c(Cl)cccc2Cl)c(Cl)c1 (stereo unspecified) [Isoconazole]	E. coli TESEC Mtb DapB	0.0672
CN[C@@H]1[C@@H](O[C@H]2O[C@H](CO)[C@@H](N)[C@H](O)[C@H]2O)OC2C[C@@H](N)[C@@H](O[C@H]3[C@H](O)[C@@H](O)[C@H](N)C[C@@H]3N)OC2[C@@H]1O (stereo partly specified) [Apramycin]	E. coli TESEC Mtb DapB	0.0527
CC(C)Cc1ccc([C@H](C)C(=O)O)cc1 [S-(+)-ibuprofen]	E. coli TESEC Mtb DapB	0.196
Cc1onc(-c2c(F)cccc2Cl)c1C(=O)N[C@@H]1C(=O)N2[C@@H]1SC(C)(C)[C@@H]2C(=O)O [Flucloxacillin sodium]	E. coli TESEC Mtb DapB	0.196
NC(=O)C(c1ccccc1)(c1ccccc1)[C@@H]1CCN(CCc2ccc3c(c2)CCO3)C1 [Darifenacin hydrobromide]	E. coli TESEC Mtb DapB	0.186
CC(Oc1ccccc1)C(=O)N[C@@H]1C(=O)N2[C@@H]1SC(C)(C)[C@@H]2C(=O)O (stereo partly specified) [Phenethicillin potassium salt]	E. coli TESEC Mtb DapB	0.226
CN1[C@@H]2CC[C@H]1C[C@@H](OC(c1ccccc1)c1ccccc1)C2 [Benztropine mesylate]	E. coli TESEC Mtb DapB	0.166
NC[C@@H]1O[C@H](O[C@H]2[C@@H](O)[C@H](O[C@@H]3[C@@H](O)[C@H](N)C[C@H](N)[C@H]3O[C@H]3O[C@H](CN)[C@@H](O)[C@H](O)[C@H]3N)O[C@@H]2CO)[C@H](N)[C@@H](O)[C@@H]1O [Neomycin sulfate]	E. coli TESEC Mtb DapB	0.187
